system: Malme-3M; assay: NCI tumour cell line growth inhibition, 48 h
Calls of active or inactive are those of the source. Rule as the data show it: active = GI50 up to about 1.1 µM and inactive = higher. Residues, ends and D or L forms follow the SMILES beside them. *: point of attachment. Cbz = O=C(OCc1ccccc1)*
Outcome codes: true (1) = active, false (0) = inactive

| compound | answerLabel |
| --- | --- |
| CCCCCCCCCCCCCCCCOP(=O)(O)Oc1ccc(/C=C\c2ccc(OP(=O)(O)OCCCCCCCCCCCCCCCC)cc2)cc1 | false (0) |
| CCN(CC)c1ccc2cc(C(=O)Nc3ccc4[nH]c(C(=O)N5C[C@@H](CCl)c6c5cc(OC(=O)Nc5ccccc5)c5[nH]cc(C)c65)cc4c3)oc2c1 [CARZELESIN] | true (1) |
| S=c1sc2c(Cl)ncnc2n1-c1ccccc1 | false (0) |
| [O-][S+]1c2ccccc2NC(c2ccc3ccccc3c2)CC1c1ccccc1 (configuration not stated) | false (0) |
| CC(=O)NNc1nc(C)c(C(=O)NNC(=O)C(=O)Nc2nc3ccc([N+](=O)[O-])cc3s2)s1 | false (0) |
| C/C(=N/NC(=S)Nc1ccccc1Cl)c1cccc(/C(C)=N\NC(=S)Nc2ccccc2Cl)n1 | false (0) |
| O=c1[nH]cc(-c2c[nH]c3ccccc23)nc1-c1c[nH]c2ccccc12 | false (0) |
| CN1C/C(=C\C=C\c2ccccc2)C(=O)/C(=C/C=C/c2ccccc2)C1 | false (0) |
| CCCCCC(=O)NC(=S)Nc1nnn[nH]1 | false (0) |
| CCOc1cccc2cccnc12 | false (0) |
| O=C1C=CC2(C=C1)CCNC1=C2C(=O)c2[nH]cnc2C1=O | false (0) |
| C/C(Cl)=N/OC(=O)Nc1ccc(S(N)(=O)=O)c(C)c1 | false (0) |
| N#Cc1sc2c(c1OC(=O)c1ccc(C(F)(F)F)cc1)c(=O)n(-c1ccccc1)c(=S)n2-c1ccccc1 | false (0) |
| CC1=C(C(=O)CC(=O)C(=O)Nc2cc(C)ccc2C)Sc2ccccc2N1 | false (0) |
| CC12C/C(=C\c3ccccc3)C(=O)C3C1CCCC32 | false (0) |
| CCOC(=O)c1nc2ccccc2nc1NCc1ccc(OC)c(OC)c1 | false (0) |
| COc1ccc2c(c1)C1Oc3ccccc3CC1CO2 (configuration not stated) | false (0) |
| COc1ccc(C)cc(O)c1=O | false (0) |
| CC(NC(=O)C(NC(=O)OCc1ccccc1)C(C)C)C(=O)NCC(=O)O (stereo not drawn) (Cbz-Val-Ala-Gly-OH; configuration not given here) | false (0) |
| O=c1[nH]nc(Cc2ccccc2)n1/N=C/c1cccnc1 | false (0) |
| C[C@]12C[C@H](O)[C@H]3[C@@H](CCC4=CC(=O)CC[C@@]43C)[C@@H]1CC[C@@H]2c1csc(-c2ccccc2)n1 | false (0) |
| O=C1CC(=O)n2cnc3cccc(c32)N1 | false (0) |
| Nc1c(C(=O)Nc2ccc([As](=O)(O)O)cc2)cnc2nnnn12 | false (0) |
| N=C(N)NS(=O)(=O)c1ccc(NC(=O)c2cccn3c(=O)c4ccccc4nc23)cc1 | false (0) |
| CC(C)(Br)C(Br)CCC(C)(Br)C(Br)CO (configuration not stated) | false (0) |
| COc1cc(=O)oc(/C=C/CO)c1C | false (0) |
| CC1(C)C2C/C(=C\c3ccccc3)C(=O)C1C2 (configuration not stated) | false (0) |
